Experiment: M. tuberculosis H37Rv growth inhibitors, H37Rv strain (AID 1626);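 also: bacteria incubated seven days before Alamar blue readout; 0% = bacteria only wells and 100% = bacteria with antibiotic wells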
Conditions: active compounds read high, concentration not given here
Screen size: about 220,000 compounds; about 2,000 (0.91%) were called active. Inconclusive results (about 2%) are left out. A selection follows. Measured potencies and affinities stand elsewhere.
The compounds listed here are annotated with their inhibition.

{"compound": "CN(C)/C=C/C(=O)c1ccc(N2CCN(c3ncc(C(F)(F)F)cc3Cl)CC2)cc1", "inhibition, %": -11.4}
{"compound": "Cc1ccc(C)c(N(C)S(=O)(=O)c2cccc3nsnc23)c1", "inhibition, %": -5.61}
{"compound": "COc1ccc(CCN(C)C(=O)c2ccc(S(=O)(=O)NCc3ccco3)cc2)cc1OC", "inhibition, %": 2.54}
{"compound": "COC(=O)c1ccc(CSc2nnc(Nc3ccc(C)cc3)s2)o1", "inhibition, %": -4.05}
{"compound": "CCOC(=O)c1ccc(NC(=O)COc2ccccc2CNC2CCCC2)cc1", "inhibition, %": 11.1}
{"compound": "Cc1ccc(-c2csc(NC(=O)/C=C/c3cccs3)n2)cc1C", "inhibition, %": 51.8}
{"compound": "COC(=O)c1c(-c2ccccc2)noc1C", "inhibition, %": -2.56}
{"compound": "Cc1ccc(CNC(=O)CSc2ccc(-c3ccccn3)nn2)cc1", "inhibition, %": 9.75}
{"compound": "O=C(NCc1cn(-c2ccccc2)nc1-c1ccccc1)c1ccc([N+](=O)[O-])cc1", "inhibition, %": -4}
{"compound": "Cc1ccc(C)c(NC(=O)Cc2coc3cc4c(cc23)CCC4)c1", "inhibition, %": 9.72}
{"compound": "O=c1[nH]c(Nc2ccccc2)cc2ccccc12", "inhibition, %": -8.22}
{"compound": "COc1ccc(-c2nc(NC(=O)c3nc4nccc(C)n4n3)sc2C)cc1", "inhibition, %": -7.46}
{"compound": "CCOC(=O)c1ccc(NC(=O)CNC(=O)C2CCCCC2)cc1", "inhibition, %": -1.48}
{"compound": "CCOC(=O)c1ccc(NC(=O)CSc2ccc(-c3ccncc3)nn2)cc1", "inhibition, %": 78}
{"compound": "NC(=O)c1ccccc1NS(=O)(=O)c1ccc2c(c1)OCCO2", "inhibition, %": -3.34}
{"compound": "COC(=O)Cc1ccc(NC(=O)c2ccc(C(C)(C)C)cc2)cc1", "inhibition, %": 6.95}
{"compound": "Cc1csc(NC(=O)CSc2ccc(-c3ccccc3)nn2)n1", "inhibition, %": -4.14}
{"compound": "O=C(Nc1ncc(Cc2ccccc2Cl)s1)c1ccc(-c2cccc([N+](=O)[O-])c2)o1", "inhibition, %": -0.67}
{"compound": "COc1ccc(C(=O)NCCc2nnc3ccc(SCC(=O)Nc4cc(C)on4)nn23)cc1", "inhibition, %": 14.5}
{"compound": "Cc1ccc(OCCn2cnc3sc(C(N)=O)c(C)c3c2=O)cc1", "inhibition, %": 11.2}
{"compound": "CCC(CC)c1nnc(NC(=O)CCCN2C(=O)c3ccccc3C2=O)s1", "inhibition, %": -6.94}
{"compound": "CCOC(=O)c1ccc(NS(C)(=O)=O)cc1", "inhibition, %": -0.25}
{"compound": "Cc1ccc(CNC(=O)C(=O)NCC2OCCN2S(=O)(=O)c2cccs2)cc1 (stereo not drawn)", "inhibition, %": -2.36}
{"compound": "CC(=O)OC(C(=O)N1CCOCC1)c1c(F)cccc1F (stereo not drawn)", "inhibition, %": -0.03}
{"compound": "O=C(Nc1ncc(Cc2cccc([N+](=O)[O-])c2)s1)c1ccco1", "inhibition, %": 1.37}
{"compound": "COCCN=C1Sc2nc3cc(C)c(C)cc3cc2CN1Cc1cccs1", "inhibition, %": 10}
{"compound": "Cc1ccc(C(=O)NCc2ccco2)cc1[N+](=O)[O-]", "inhibition, %": 0.79}
{"compound": "O=C(NC(=S)NCCN1CCOCC1)c1ccccc1", "inhibition, %": -16.1}
{"compound": "COc1cc2c(C(=O)O)c(C)n(C)c2cc1Br", "inhibition, %": -0.16}
{"compound": "CCCCNC(=O)c1ccc(Cn2c(=S)[nH]c3c([nH]c4ccc(OC)cc43)c2=O)cc1", "inhibition, %": -1.23}
{"compound": "O=C(/C=C/c1cccs1)Nc1nccs1", "inhibition, %": -4.27}
{"compound": "CCOC(=O)c1ccc(NC(=O)C2CCN(S(=O)(=O)CC)CC2)cc1", "inhibition, %": 51.8}
{"compound": "CC1C(=O)NN=C1C(=O)N/N=C/c1ccco1 (stereo not drawn)", "inhibition, %": 4.15}
{"compound": "Cc1nnc(NC(=O)CSc2ccc(-c3ccccn3)nn2)s1", "inhibition, %": -8.09}
{"compound": "Cc1ccc(SCC(=O)Nc2ccc(N3CCN(c4ccccc4)CC3)c(F)c2)cc1", "inhibition, %": 3.11}
{"compound": "NC(=O)CN1C(=O)C2C3c4ccccc4C(c4ccccc43)C2C1=O (stereo not drawn)", "inhibition, %": 2.42}
{"compound": "CCCOC(=O)c1ccc(NC(=O)C(CC)CC)cc1", "inhibition, %": 0.89}
{"compound": "CCn1cnc2sc(C(=O)Nc3ccccc3OC)c(C)c2c1=O", "inhibition, %": 2.12}
